Molecular target: T1, Plasmodium falciparum histidine-rich protein II (HRP-II) (Plasmodium falciparum, UniProt P05227 22-332)
T1 construct: Coating antigen of all ELISAs; also called HRP-II protein; MA-HRPII Ag protein
T1 sequence (looked up): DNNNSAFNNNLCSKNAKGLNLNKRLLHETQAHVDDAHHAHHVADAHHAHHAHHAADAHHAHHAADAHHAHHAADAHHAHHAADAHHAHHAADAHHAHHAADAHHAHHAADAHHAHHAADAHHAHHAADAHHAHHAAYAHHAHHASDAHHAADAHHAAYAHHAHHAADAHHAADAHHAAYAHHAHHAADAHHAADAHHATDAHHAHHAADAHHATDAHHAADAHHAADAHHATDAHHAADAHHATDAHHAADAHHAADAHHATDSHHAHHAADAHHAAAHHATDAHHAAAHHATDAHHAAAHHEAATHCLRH
Assay: indirect ELISA, four antigen coating concentrations;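 note: optical density read across an antibody dilution series at each antigen coating level, curves plotted on log scale, KD derived as reciprocal of the averaged constant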
outcome measure: pKd
Note on pKd: it is the negative log10 of concentration, concentration in mol/L.

# count of solved cases: 2
[[record]]
binder = "Mutation 1-19 (antibody, mouse IgG2b, kappa, V domains shown, Mutation 1 as framework) VH: EVQLQQSGPEVVKPGASVKISCKASGTTLTDYYMNWVKQSHGKGLEWIGDINPIQGGTAYNQKFRDKATLTVDKSSNTAYMELRSLTSEDSALYYCTRGAEDYWGQGTTLTVSS VL: DVVLTQTPLSLSVTIGQPASISCKSSQSIIYSQGKIYLNWFQQRPGQSPKRLMYQISKLEPGIPDRFSGSGSETDFTLKISRVEAEDLGVYYCLQATYSPQTFGGGTKLEIKR"
outcome_measure = "pKd"
reported = 10.08

[[record]]
binder = "Mutation 1-48 (antibody, mouse IgG2b, kappa, V domains shown, Mutation 1 as framework) VH: EVQLQQSGPEVVKPGASVKISCKASGYTITDYYMNWVKQSHGKGLEWIGDLNPIQGGTAYNQKFRDKATLTVDKSSNTAYMELRSLTSEDSALYYCTRGAEDYWGQGTTLTVSS VL: DVVLTQTPLSLSVTIGQPASISCKSSQSLLYSQGKIYLNWFQQRPGQSPKRLMYQISKLDPGIPDRFSGSGSETDFTLKISRVEAEDLGVYYCLQGTYYPQTFGGGTKLEIKR"
outcome_measure = "pKd"
reported = 9.48


Let us move to another entry and its pKd.
Requested field: pKd. Item: Mutation 1-51 (antibody, mouse IgG2b, kappa, V domains shown, Mutation 1 as framework) VH: EVQLQQSGPEVVKPGASVKISCKASGSTLTDYYMNWVKQSHGKGLEWIGDLNPINGGTAYQQKFRDKATLTVDKSSNTAYMELRSLTSEDSALYYCTKGAEDYWGQGTTLTVSS VL: DVVLTQTPLSLSVTIGQPASISCKSSQSLLYSNGKIYLNWFQQRPGQSPKRLMYQLSKLEPGIPDRFSGSGSETDFTLKISRVEAEDLGVYYCLQGTYYPQTFGGGTKLEIKR
9.75
